Items are presented alongside their recorded IC50.
- STUDY_SYSTEM: PR-A (Homo sapiens)
- TEST: Transactivation test on antagonistic activity at PR-A
- MEASUREMENT_SETUP: antagonism at PR-A
// note: answer is a bare numeric in µM

- N#Cc1ccc(NC(=O)C(O)(Cc2ccccc2)C2CCN(C(=O)c3ccccc3)CC2)cc1C(F)(F)F (single isomer, unassigned) [Example 101a]: 0.0147
- N#Cc1ccc(NC(=O)C(O)(Cc2cccc(-c3ccsc3)c2)C2CCCCC2)cc1C(F)(F)F (stereo not drawn) [Example 59]: 0.0468

Let's switch to this compound now.
Per the record, CNC(=O)c1cccc(-c2cccc(CC(O)(C(=O)Nc3ccc(C#N)c(C(F)(F)F)c3)C3CCCCC3)c2)c1 (stereo not drawn) [Example 68] has IC50 of 0.00513

====

- STUDY_SYSTEM: PR-A (Homo sapiens)
- Sequence (P06401 1-769 isoform P06401-2): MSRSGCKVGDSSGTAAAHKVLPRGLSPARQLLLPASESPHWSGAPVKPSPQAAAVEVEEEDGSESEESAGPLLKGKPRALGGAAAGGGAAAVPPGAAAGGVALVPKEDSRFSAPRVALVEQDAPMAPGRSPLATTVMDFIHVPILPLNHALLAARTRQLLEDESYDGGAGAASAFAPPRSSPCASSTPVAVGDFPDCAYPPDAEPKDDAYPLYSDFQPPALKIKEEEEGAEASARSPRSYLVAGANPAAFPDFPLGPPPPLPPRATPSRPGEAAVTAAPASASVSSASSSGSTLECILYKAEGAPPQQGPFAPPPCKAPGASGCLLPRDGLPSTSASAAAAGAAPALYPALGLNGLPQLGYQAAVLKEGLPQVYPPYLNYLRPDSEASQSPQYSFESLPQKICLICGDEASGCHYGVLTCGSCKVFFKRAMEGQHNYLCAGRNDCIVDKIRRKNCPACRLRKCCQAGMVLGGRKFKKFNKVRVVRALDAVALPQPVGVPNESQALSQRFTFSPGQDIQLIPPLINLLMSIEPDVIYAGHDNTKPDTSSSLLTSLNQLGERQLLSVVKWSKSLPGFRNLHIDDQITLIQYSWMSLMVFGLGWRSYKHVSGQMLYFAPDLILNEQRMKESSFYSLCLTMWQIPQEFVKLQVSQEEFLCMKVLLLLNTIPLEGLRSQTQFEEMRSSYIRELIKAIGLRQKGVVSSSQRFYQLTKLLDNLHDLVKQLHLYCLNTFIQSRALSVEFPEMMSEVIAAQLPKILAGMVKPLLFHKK
- TEST: Transactivation test on antagonistic activity at PR-A
- MEASUREMENT_SETUP: antagonism at PR-A
- Description: The transactivation assay is carried out as described in WO 02/054064.
METRIC: pIC50
# log scale: pIC50 equals minus log10 of the concentration in mol/L

Sample records with pIC50:
- N#Cc1ccc(NC(=O)C(O)(Cc2cccc(-c3cccc(C(N)=O)c3)c2)C2CCN(S(=O)(=O)c3ccc(F)cc3)CC2)cc1C(F)(F)F (single isomer, unassigned) [Example 172]: 8.92
- CC(=O)c1ccc(-c2ccccc2CC(O)(C(=O)Nc2ccc(C#N)c(Cl)c2)C2CCCCC2)cc1 (single isomer, unassigned) [Example 19a]: 8.20

Let's switch to this compound now.
Per the record, CS(=O)(=O)N1CCN(Cc2cccc(CC(O)(C(=O)Nc3ccc(C#N)c(C(F)(F)F)c3)C3CCCCC3)c2)CC1 (stereo not drawn) [Example 84] has pIC50 of 7.29

====

- STUDY_SYSTEM: PR-B (Homo sapiens)
- Construct: expressed in transfected cells
- TEST: Transactivation test on antagonistic activity on PR-B
- Assay type: cell-based
Items are presented alongside their recorded pIC50.
# log scale: pIC50 equals minus log10 of the concentration in mol/L

* N#Cc1ccc(NC(=O)C(O)(C#Cc2ccc(C(=O)O)cc2)C2CCCCC2)cc1Cl (racemic) | 8.74
* N#Cc1ccc(NC(=O)C(O)(Cc2ccccc2)C2CCCCC2)cc1Cl (racemic) | 8.25
* N#Cc1ccc(NC(=O)C(O)(C#Cc2ccc(O)cc2)C2CCCCC2)cc1Cl (racemic) | 8.15

pIC50 for PR-B (Homo sapiens) with input Cc1ccc(C#CC(O)(C(=O)Nc2ccc(C#N)c(Cl)c2)C2CCCCC2)cc1 (racemic) equals 8.70
